- assay.explanation: In vivo pharmacokinetic study in rat plasma
- Set-up: species or system Sprague‐Dawley rats
- details: male, Sprague-Dawley; rat plasma, PO gavage 40 mg kg^−1
assay.metric: Cmax (ng/mL)
I only need the number, in ng/mL, no unit after it.

Query :: Assign Cmax to the following record: COc1cccc(N(CCNC(C)=O)c2cccc(CO)c2)c1 [Compound 14]
Result :: 75.6

###

- assay.explanation: In vivo pharmacokinetic study in rat plasma
- Set-up: species or system Sprague‐Dawley rats
- details: male, Sprague-Dawley; rat plasma, PO gavage 40 mg kg^−1
assay.metric: AUC (ng·h/mL)
I only need the number, in ng·h/mL, no unit after it.

Query :: Assign AUC to the following record: COc1cccc(N(CCNC(C)=O)c2cccc(CO)c2)c1
Result :: 43.8
